Listing of entries alongside the reported microsomal CLint at 1 uM.
- Protocol Description: Metabolic stability in human hepatic microsome
- Assay type: in vitro ADME
- Condition Details: human, microsomes, pH 7.4, CL NADPH(+)
Starred links: 1 amine or outer side, 2 acyl side, 3 side chain; linkers in the order of their positions; H or OH if unused. Positions of bridges follow the written chain, without caps; N, C: chain ends. Non-standard residues stand in square brackets, D forms with d. Residues, ends and D or L forms follow the SMILES beside them. ξ: configuration not given here. *: point of attachment. Phe(4-CF3) = N[C@@H](Cc1ccc(C(F)(F)F)cc1)C(=O)O; NMeF = CN[C@@H](Cc1ccccc1)C(=O)O; NMeGABA = CN(CCCC(=O)[*:2])[*:1]; NMeI = CC[C@H](C)[C@H](NC)C(=O)O; NMeβAla = CN(CCC(=O)[*:2])[*:1]; ξThr(3R) = C[C@@H](O)C(N)C(=O)O; NMeL = CN[C@@H](CC(C)C)C(=O)O; NMeV = CN[C@H](C(=O)O)C(C)C; NMeA = CN[C@@H](C)C(=O)O; Piperidide = C1CCN(*)CC1; β3hA = C[C@H](N)CC(=O)O; Sar = CNCC(=O)O; tBu = CC(C)(C)*
Your answer is read as µL/min/mg, so omit the unit and give the number.

Please review the entries below; each comes with its answer.
| Compound | microsomal CLint at 1 uM [µL/min/mg] |
| --- | --- |
| CC[C@H](C)[C@H]1C(=O)N(C)[C@@H](C)C(=O)N(C)[C@@H](CC(C)C)C(=O)N[C@@H](COC(C)(C)C)C(=O)N(C)[C@@H](CC(C)C)C(=O)N[C@@H](C)CC(=O)N(C)[C@@H](C)C(=O)N(C)[C@@H](Cc2ccccc2)C(=O)N[C@@H](C)C(=O)N(C)[C@@H](CC(C)C)C(=O)N[C@@H]([C@@H](C)O)C(=O)N[C@@H](Cc2ccccc2)C(=O)N1C [DP-759] (cyclo(A[NMeL]TF[NMeI][NMeA][NMeL]S(tBu)[NMeL][β3hA][NMeA][NMeF])) | 144 |
| CC(C)C[C@H]1C(=O)N[C@@H](C)C(=O)N(C)[C@@H](C)C(=O)N[C@@H](C)CC(=O)N(C)[C@@H](C)C(=O)N[C@@H]([C@@H](C)O)C(=O)N(C)CC(=O)N(C)[C@@H](Cc2ccccc2)C(=O)N(C)[C@@H](Cc2ccccc2)C(=O)N(C)[C@@H](C)C(=O)N2CCC[C@H]2C(=O)N1C [DP-765] (cyclo(A[NMeA][β3hA][NMeA]T[Sar][NMeF][NMeF][NMeA]P[NMeL])) | 13 |
| CC(C)C[C@H]1C(=O)NCC(=O)N[C@H](C(=O)N(C)[C@@H](Cc2ccccc2)C(=O)N(C)[C@@H](Cc2ccccc2)C(=O)N[C@@H](C)C(=O)N2CCCCC2)CC(=O)N[C@@H](C)C(=O)N[C@@H]([C@@H](C)O)C(=O)N(C)[C@@H](C)C(=O)N(C)[C@@H](Cc2ccccc2)C(=O)N[C@@H](C(C)C)C(=O)N(C)[C@@H](Cc2ccccc2)C(=O)N1C [DP-396] (AT[NMeA][NMeF]V[NMeF][NMeL]GD[NMeF][NMeF]A-Piperidide; lactam N-9) | 141 |
| CC[C@H](C)[C@H](NC(=O)[C@H](CC(C)C)NC(=O)[C@@H]1CC(=O)N[C@@H](C)C(=O)N[C@@H](CC(C)C)C(=O)N[C@@H](Cc2ccccc2)C(=O)N[C@@H](CC(C)C)C(=O)N[C@@H]([C@@H](C)O)C(=O)N2CCC[C@H]2C(=O)N(C)CC(=O)N[C@@H](Cc2ccccc2)C(=O)N[C@@H](C(C)C)C(=O)N(C)[C@@H](C)C(=O)N1)C(=O)N1CCCCC1 [DP-41] (ALFLTP[Sar]FV[NMeA]DLI-Piperidide; lactam N-11) | 72 |
| CC[C@H](C)[C@@H]1NC(=O)[C@H](CC(C)C)N(C)C(=O)CCCN(C)C(=O)C[C@@H](C(=O)N2CCCCC2)NC(=O)[C@H](CC(C)C)N(C)C(=O)[C@H](C)N(C)C(=O)[C@H]([C@@H](C)O)NC(=O)[C@H](CC(C)C)N(C)C(=O)[C@H](COC(C)(C)C)NC(=O)[C@H](Cc2ccccc2)N(C)C(=O)[C@H](Cc2ccccc2)N(C)C1=O [DP-114] ([NMeGABA][NMeL]I[NMeF][NMeF]S(tBu)[NMeL]T[NMeA][NMeL]D-Piperidide; lactam N-11) | 56 |
| CC[C@H](C)[C@H]1C(=O)N[C@@H]([C@@H](C)O)C(=O)N(C)CC(=O)N(C)[C@@H](CC(C)C)C(=O)N[C@H](C(=O)N2CCCCC2)CC(=O)N(C)[C@@H](C)C(=O)N[C@@H](CC(C)C)C(=O)N(C)[C@@H](CC(C)C)C(=O)N(C)[C@@H](Cc2ccccc2)C(=O)N[C@@H](C)C(=O)N(C)[C@@H](Cc2ccccc2)C(=O)N1C [DP-101] ([NMeA]L[NMeL][NMeF]A[NMeF][NMeI]T[Sar][NMeL]D-Piperidide; lactam N-11) | 101 |
| CC[C@H](C)[C@@H]1NC(=O)[C@@H]2CCCN2C(=O)[C@H](Cc2ccccc2)NC(=O)[C@H](Cc2ccccc2)NC(=O)[C@H](CC(C)C)NC(=O)[C@H](C(C)C)N(C)C(=O)[C@H](CC(C)C)NC(=O)[C@H](C)NC(=O)[C@H](C)NC(=O)C[C@@H](C(=O)N2CCCCC2)NC(=O)CNC(=O)C([C@@H](C)O)NC1=O (stereo partly drawn) [DP-3] (AAL[NMeV]LFFPI[ξThr(3R)]GD-Piperidide; lactam N-12) | 45 |
| CC[C@H](C)[C@H]1C(=O)N[C@@H](C)C(=O)N(C)[C@@H](Cc2ccccc2)C(=O)N[C@@H]([C@@H](C)O)C(=O)N(C)CC(=O)N(C)[C@@H](Cc2ccccc2)C(=O)N(C)[C@@H](CC(C)C)C(=O)N[C@H](C(=O)N2CCCCC2)CC(=O)N(C)CCC(=O)N[C@@H](CC(C)C)C(=O)N(C)[C@@H](CC(C)C)C(=O)N1C [DP-48] ([NMeβAla]L[NMeL][NMeI]A[NMeF]T[Sar][NMeF][NMeL]D-Piperidide; lactam N-11) | 32 |

# return recorded microsomal CLint at 1 uM for entry CC[C@H](C)[C@@H]1NC(=O)[C@H](CC(C)C)N(C)C(=O)[C@H](CC(C)C)N(C)C(=O)[C@H](C)NC(=O)[C@H](CC(C)C)N(C)C(=O)[C@H](Cc2ccc(C(F)(F)F)cc2)NC(=O)[C@H]([C@@H](C)O)NC(=O)[C@H](CC(C)C)N(C)C(=O)[C@H](CC(C)C)N(C)C(=O)[C@H](C)N(C)C(=O)C[C@H](C)NC1=O [DP-776] (cyclo(A[NMeL][NMeL]I[β3hA][NMeA][NMeL][NMeL]T[Phe(4-CF3)][NMeL]))
44
